# pIC50 per record follows
test system: HepG2; assay: Antiproliferative activity against human HepG2 cells after 24 hrs by Alamar blue assay; assay type: functional, cell-based; settings: Homo sapiens, HepG2, 24 h; read-out: IC50
pIC50: −log10 of the molar value.

| smiles | assayed-target | value-qualifier | pIC50 |
| --- | --- | --- | --- |
| CCCCCCCCCCCCC/C=C/[C@@H](O)[C@H](CO)NC(C)=O | HepG2 | = | 4.24 |
| CCCCCCCCCCCCC/C=C/C(=O)[C@H](CO)NC(C)=O | HepG2 | = | 3.76 |
| CCCCCCCCc1ccc(/C=C/C(=O)[C@H](CO)NC(C)=O)cc1 | HepG2 | = | 4.19 |
| CCCCCCCCc1ccc(/C=C/[C@@H](O)[C@H](CO)NC(C)=O)cc1 | HepG2 | = | 4.51 |
| CC(=O)N[C@@H](CO)C(=O)/C=C/c1ccc(-c2ccccc2)cc1 | HepG2 | = | 4.39 |
| CC(=O)N[C@@H](CO)C(=O)/C=C/c1ccccc1 | HepG2 | < | 3.70 |

----------
Reported pIC50 by item:
assay: Antiproliferative activity against rat PC12 cells after 24 hrs by Alamar blue assay; type: functional, cell-based, PC-12; settings: Rattus norvegicus, PC-12, 24 h; read-out: IC50
pIC50: −log10 of the molar value.

| smiles | value-qualifier | pIC50 |
| --- | --- | --- |
| CC(=O)N[C@@H](CO)C(=O)/C=C/c1ccc(-c2ccccc2)cc1 | = | 4.23 |
| CCCCCCCCc1ccc(/C=C/[C@@H](O)[C@H](CO)NC(C)=O)cc1 | = | 4.40 |
| CC(=O)N[C@@H](CO)C(=O)/C=C/c1ccccc1 | = | 4.38 |
| CCCCCCCCCCCCC/C=C/[C@@H](O)[C@H](CO)NC(C)=O | = | 4.01 |
| CCCCCCCCc1ccc(/C=C/C(=O)[C@H](CO)NC(C)=O)cc1 | = | 4.15 |
| CCCCCCCCCCCCC/C=C/C(=O)[C@H](CO)NC(C)=O | < | 3.70 |

Every entry's value here was drawn from ChEMBL document CHEMBL3351976.
